biological target: Cathepsin D (Cat D) (Homo sapiens); construct: made in house; host or cells: CHO cells; test: In vitro enzymatic Cathepsin D (Cat D) FRET assay; format: biochemical; details: average IC50; first procedure; read-out: CatD IC50
Sequence (P07339 65-412, species assumed): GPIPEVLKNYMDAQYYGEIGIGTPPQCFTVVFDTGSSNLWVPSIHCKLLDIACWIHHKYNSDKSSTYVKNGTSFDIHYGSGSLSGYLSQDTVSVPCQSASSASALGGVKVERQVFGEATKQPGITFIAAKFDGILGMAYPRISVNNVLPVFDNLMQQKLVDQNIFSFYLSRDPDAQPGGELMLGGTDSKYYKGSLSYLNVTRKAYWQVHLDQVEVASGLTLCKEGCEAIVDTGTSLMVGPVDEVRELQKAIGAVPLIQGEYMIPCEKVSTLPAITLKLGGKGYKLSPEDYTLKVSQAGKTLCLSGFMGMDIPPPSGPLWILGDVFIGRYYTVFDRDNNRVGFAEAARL
Quantity: IC50 (µM)

{"columns": ["Compound", "Test target", "IC50 [µM]"],
 "data": [
  ["COc1cnc2c(Nc3ccc(F)c([C@@]4(C)N=C(N)[C@@]5(C)CC[C@@H]4S5(=O)=O)c3)ncnc2c1", "Cathepsin D (Cat D) (Homo sapiens)", 965],
  ["C#CCOc1cnc2c(Nc3ccc(F)c([C@@]4(C)N=C(N)[C@@]5(CF)CC[C@@H]4S5(=O)=O)c3)nccc2n1", "Cathepsin D (Cat D) (Homo sapiens)", 1000]
]}

[I] COc1cnc(C(=O)Nc2ccc(F)c([C@@]3(C)N=C(N)[C@@]4(C)CC[C@@H]3S4(=O)=O)c2)cn1
[II] C#CCOc1cnc(C(=O)Nc2ccc(F)c([C@@]3(C)N=C(N)[C@@]4(CF)CC[C@@H]3S4(=O)=O)c2)c(C)n1
[III] COc1ccc(C(=O)Nc2ccc(F)c([C@@]3(C)N=C(N)[C@]4(C)CC[C@H]3S4(=O)=O)c2)c(F)c1
[IV] Cc1cc(C(F)(F)F)cnc1C(=O)Nc1ccc(F)c([C@@]2(CF)N=C(N)[C@]3(C)CC[C@H]2S3(=O)=O)c1 (single isomer, unassigned)
input: Sort entries by IC50 from minimum to maximum value. List the labels, following the order given in the request.
output: IV, II, I, III
(IV: 255 µM, II: 837 µM, I: 2500 µM, III: 4440 µM)

[a] CCc1ccc(C(=O)Nc2ccc(F)c([C@@]3(C)N=C(N)[C@@]4(CF)CC[C@@H]3S4(=O)=O)c2)nc1
[b] Cc1cnc(COc2cnc3c(Nc4ccc(F)c([C@@]5(C)N=C(N)[C@@]6(C)CC[C@@H]5S6(=O)=O)c4)nccc3n2)o1
input: Between a and b , which one shows the smaller IC50 number? Please indicate the selected item by its label.
output: b
(b: 417 µM, a: 1850 µM)
